- Test system: 156681-154-R-J1-PDC complex spheroid viability;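 note: spheroids exposed to the agents for seven days; 100% = DMSO vehicle control viability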
- RUN DESCRIPTION: Anticancer human tumor 156681-154-R-J1-PDC patient-derived melanoma cell line growth inhibition [CLK]
- CONDITION DESCRIPTION: second compound 3.16 µM; first compound 1 µM; hits give low values
Output 1 for records whose viability, T/C is lower than 0.3%, -1 for records at or above 0.3%.

{"columns": ["MOLECULE", "CLASS ASSIGNMENT"],
 "data": [
  ["CCCS(=O)(=O)Nc1ccc(F)c(C(=O)c2c[nH]c3ncc(-c4ccc(Cl)cc4)cc23)c1F + CNC(=O)c1ccc(Nc2nc(OC3CCCC3)c3c(-c4ccc5nc(C)oc5c4)c[nH]c3n2)c(OC)c1", -1],
  ["COC1C=CCC(C)C(C)S(=O)(=O)NC(=O)c2ccc3c(c2)N(CC2CCC21)CC1(CCCc2cc(Cl)ccc21)CO3 (stereo not drawn) + CN1CCN(c2cc(C(=O)Nc3cc4cc(-c5cnn(C)c5)ccc4cn3)ccn2)CC1", 1],
  ["COc1c(OCCCN2CCOCC2)ccc2c3n(c(=NC(=O)c4cnc(N)nc4)nc12)CCN3 + CNC(=O)c1ccc(Nc2nc(OC3CCCC3)c3c(-c4ccc5nc(C)oc5c4)c[nH]c3n2)c(OC)c1", -1],
  ["O=C(c1cc(Cc2n[nH]c(=O)c3ccccc23)ccc1F)N1CCN(C(=O)C2CC2)CC1 + CNC(=O)c1ccc(Nc2nc(OC3CCCC3)c3c(-c4ccc5nc(C)oc5c4)c[nH]c3n2)c(OC)c1", -1],
  ["COc1c(OCCCN2CCOCC2)ccc2c3n(c(=NC(=O)c4cnc(N)nc4)nc12)CCN3 + CN1CCN(c2cc(C(=O)Nc3cc4cc(-c5cnn(C)c5)ccc4cn3)ccn2)CC1", -1],
  ["CCc1c2c(nc3ccc(O)cc13)-c1cc3c(c(=O)n1C2)COC(=O)[C@]3(O)CC + CN1CCN(c2cc(C(=O)Nc3cc4cc(-c5cnn(C)c5)ccc4cn3)ccn2)CC1", -1],
  ["CCc1c2c(nc3ccc(O)cc13)-c1cc3c(c(=O)n1C2)COC(=O)[C@]3(O)CC + CNC(=O)c1ccc(Nc2nc(OC3CCCC3)c3c(-c4ccc5nc(C)oc5c4)c[nH]c3n2)c(OC)c1", -1],
  ["O=C(c1cc(Cc2n[nH]c(=O)c3ccccc23)ccc1F)N1CCN(C(=O)C2CC2)CC1 + CN1CCN(c2cc(C(=O)Nc3cc4cc(-c5cnn(C)c5)ccc4cn3)ccn2)CC1", 1],
  ["COc1ccc([C@@H](O)c2cc(-c3ncnc4cc(N5CCOCC5)ccc34)c(F)cc2Cl)nn1 + CN1CCN(c2cc(C(=O)Nc3cc4cc(-c5cnn(C)c5)ccc4cn3)ccn2)CC1", 1],
  ["CC(=O)O[C@H]1C(=O)[C@@]2(C)[C@H]([C@H](OC(=O)c3ccccc3)[C@]3(O)C[C@H](OC(=O)[C@H](O)[C@@H](NC(=O)c4ccccc4)c4ccccc4)C(C)=C1C3(C)C)[C@]1(OC(C)=O)CO[C@@H]1C[C@@H]2O + CN1CCN(c2cc(C(=O)Nc3cc4cc(-c5cnn(C)c5)ccc4cn3)ccn2)CC1", 1],
  ["C=CC(=O)N1CCN(c2nc(=O)n(-c3c(C)ccnc3C(C)C)c3nc(-c4c(O)cccc4F)c(F)cc23)C(C)C1 (stereo not drawn) + CN1CCN(c2cc(C(=O)Nc3cc4cc(-c5cnn(C)c5)ccc4cn3)ccn2)CC1", 1],
  ["C=C(F)C(=O)N1CCN(c2nc(OCC3CCCN3C)nc3c2CCN(c2cccc4cccc(Cl)c24)C3)CC1CC#N (stereo not drawn) + CNC(=O)c1ccc(Nc2nc(OC3CCCC3)c3c(-c4ccc5nc(C)oc5c4)c[nH]c3n2)c(OC)c1", -1],
  ["CCCS(=O)(=O)Nc1ccc(F)c(C(=O)c2c[nH]c3ncc(-c4ccc(Cl)cc4)cc23)c1F + CN1CCN(c2cc(C(=O)Nc3cc4cc(-c5cnn(C)c5)ccc4cn3)ccn2)CC1", 1]
]}
